- Condition Description: 338.15 K; 101.33 kPa; Liquid; Capillary tube (Ostwald / Ubbelohde) method
Result Type: viscosity (mPa·s)

Below, each entry is followed by its recorded viscosity result.
CC(=O)OCc1ccccc1 [benzyl ethanoate] ... 1.059
CC(=O)OCCC(C)C [3-methylbutyl ethanoate] ... 0.484
CCOC(=O)c1ccccc1 [ethyl benzoate] ... 1.016
CCCCCCCC(=O)OCC [ethyl octanoate] ... 0.784
CCCCCC(=O)OCC [ethyl hexanoate] ... 0.562
CCOC(=O)Cc1ccccc1 [ethyl phenylacetate] ... 1.191

A = CCC(=O)OCc1ccccc1 [benzyl propanoate]
B = CCCC(=O)OCCC(C)C [3-methylbutyl butanoate]
Which record would sort first by descending viscosity, A or B ? Response format: the label of the selected entry.
A

I = COC(=O)c1ccccc1 [methyl benzoate]
II = CCOC(=O)CC(C)C [ethyl 3-methylbutanoate]
Of the pair I and II , name the member with the lesser recorded viscosity. Pick one and reply with its label.
II

1 = CCOC(=O)CC(C)=O [ethyl 3-oxobutanoate]
2 = CCOC(=O)c1ccccc1O [ethyl 2-hydroxybenzoate]
Which of the two gives a bigger number for viscosity: 1 or 2 ? Could you answer with the label of the item you picked?
2
